Hello, the source for this data is paper PMC4180634, in case you need it.

- test_summary: Single dose pharmacokinetic study after oral and intravenous administration in male rats (serum, HPLC-UV)
- Format: in vivo, Sprague-Dawley rats
- setup_conditions: Sprague-Dawley, rat; oral 72 mg kg^−1, male rats, serum, mean ± SD, N = 4
reported_property: Cmax (ng/mL)

[[record]]
compound = "C=C(c1ccc(OC(C)(C)CO)cc1)C1COC2(OO1)C1CC3CC(C1)CC2C3 (stereo not shown) [97/63]"
reported_property = "Cmax"
reported_result = 229


----------
- test_summary: Single dose pharmacokinetic study after oral and intravenous administration in male rats (serum, HPLC-UV)
- Assay type: in vivo, Sprague-Dawley rats
- setup_conditions: male, Sprague-Dawley, rat, serum, po, 72 mg/kg, oral 72 mg kg^−1, male rats, two-compartment model; read-out: T 1/2 (β) elimination half-life (converted)
reported_property: half-life (h)

[[record]]
compound = "C=C(c1ccc(OC(C)(C)CO)cc1)C1COC2(OO1)C1CC3CC(C1)CC2C3 (stereo not shown) [97/63]"
reported_property = "half-life"
unit_tag = "h"
reported_result = 10.6

